- assayed.system: Aminopeptidase N (Sus scrofa)
- Sequence (P15145 whole entry): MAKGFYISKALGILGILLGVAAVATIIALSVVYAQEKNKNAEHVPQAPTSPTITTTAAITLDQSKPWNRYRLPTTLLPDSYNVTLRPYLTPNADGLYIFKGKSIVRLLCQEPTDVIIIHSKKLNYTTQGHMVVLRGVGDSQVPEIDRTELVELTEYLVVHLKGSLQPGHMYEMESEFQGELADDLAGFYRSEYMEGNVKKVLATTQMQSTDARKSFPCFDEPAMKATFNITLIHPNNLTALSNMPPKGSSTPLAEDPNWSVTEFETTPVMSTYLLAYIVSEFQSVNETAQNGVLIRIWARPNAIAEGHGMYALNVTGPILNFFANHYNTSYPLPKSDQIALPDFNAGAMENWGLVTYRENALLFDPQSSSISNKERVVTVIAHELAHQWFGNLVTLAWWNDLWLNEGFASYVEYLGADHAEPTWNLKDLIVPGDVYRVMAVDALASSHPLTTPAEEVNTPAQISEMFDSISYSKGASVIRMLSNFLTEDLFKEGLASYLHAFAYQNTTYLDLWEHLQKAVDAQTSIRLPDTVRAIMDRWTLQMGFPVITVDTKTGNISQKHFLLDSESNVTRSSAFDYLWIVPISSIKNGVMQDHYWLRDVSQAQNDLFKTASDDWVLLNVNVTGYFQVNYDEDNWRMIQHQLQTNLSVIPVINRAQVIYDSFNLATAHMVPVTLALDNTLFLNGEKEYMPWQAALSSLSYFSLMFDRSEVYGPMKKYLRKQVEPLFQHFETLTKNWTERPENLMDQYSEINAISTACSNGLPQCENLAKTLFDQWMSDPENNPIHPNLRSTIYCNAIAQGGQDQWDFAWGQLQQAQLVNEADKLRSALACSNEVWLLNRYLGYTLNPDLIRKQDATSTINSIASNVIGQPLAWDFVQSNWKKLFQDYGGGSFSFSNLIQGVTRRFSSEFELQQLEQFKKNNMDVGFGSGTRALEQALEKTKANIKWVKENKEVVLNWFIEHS
Where a SMILES comes first, the peptide text is derived from it. [ ]: non-standard residue; d: D form. The star is where a group is joined. Arg(NO2) = N=C(NCCC[C@H](N)C(=O)O)N[N+](=O)[O-]; Boc = CC(C)(C)OC(=O)*; NHOH = ON*
Recorded measurements of log10 of IC50, one per entry
log10 IC50, µM

{"compound": "CC(C)(C)OC(=O)N1CCC[C@H]1C(=O)N[C@@H](Cc1ccc(O)cc1)C(=O)N[C@@H](CCCNC(=N)N[N+](=O)[O-])C(=O)NO (Boc-Pro-Tyr-[Arg(NO2)]-{NHOH})", "log10 of IC50": 2.64}
{"compound": "C[C@H](NC(=O)c1ccc(Cl)cc1Cl)C(=O)N[C@@H](CCCNC(N)=N[N+](=O)[O-])C(=O)NO", "log10 of IC50": 1.50}
{"compound": "CC(C)C[C@H](NC(=O)OC(C)(C)C)C(=O)NCC(=O)N[C@@H](CCCNC(N)=N[N+](=O)[O-])C(=O)NO (Boc-Leu-Gly-[Arg(NO2)]-{NHOH})", "log10 of IC50": 1.40}
{"compound": "COc1ccc(C(=O)N[C@@H](C)C(=O)N[C@@H](CCCNC(N)=N[N+](=O)[O-])C(=O)NO)cc1", "log10 of IC50": 1.21}

Lookup result for `CC(C)C[C@H](NC(=O)c1ccccc1Cl)C(=O)N[C@@H](CCCNC(N)=N[N+](=O)[O-])C(=O)NO` ; measured log10 of IC50: 0.68

Lookup result for N=C(NCCC[C@H](NC(=O)[C@H](Cc1ccc(O)cc1)NC(=O)[C@@H]1CCCN1)C(=O)NO)N[N+](=O)[O-] (H-Pro-Tyr-[Arg(NO2)]-{NHOH}) ; measured log10 of IC50: 2.39
